B1: LINE1-full (parent)
chain: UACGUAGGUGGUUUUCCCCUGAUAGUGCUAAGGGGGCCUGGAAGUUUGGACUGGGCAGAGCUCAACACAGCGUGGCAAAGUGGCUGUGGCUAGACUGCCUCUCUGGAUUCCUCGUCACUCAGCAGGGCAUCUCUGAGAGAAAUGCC

Variants of: B1
Test: self-cleavage, relative activity (ratio to wild type); higher = more cleavage; in vitro, sequencing; the parent is a self-cleaving ribozyme

variant id	self-cleavage
U119C	1.59
A67G U132A	0.64
A50G	0.9
U96C U112C	0.12
G72C A136G	1.41
A6G A64G	0.62
U1A U13C	0.91
A2G G89A	0.11
C99U C133U	0.34
A2U A142G	1.15
U20C G55A	0.25
U47A U62C	0.06
C3A A121G	0.53
U12A A42U	1.75
U87C U132C	0.19
U13G U47A	0.86
G34C A107G	1.12
U46C G48A	1.04
U9C G139A	1.09
A78C U102C	2.53
A78U U119C	2.05
U13A U112C	0.9
